assay_target: Histone deacetylase (Homo sapiens) (UniProt Q13547+O15379+Q9UBN7+Q92769+Q9UQL6+Q8WUI4+Q9BY41+Q96DB2+P56524+Q9UKV0+Q969S8)
assay_summary: Inhibition of HDAC (unknown origin) at 50 uM
Assay type: protein assay
experimental_readout: inhibition (%)

Some compounds with recorded inhibition:
C[C@H]1[C@H](C)CC[C@]2(C)CC[C@]3(C)C(=CC(=O)[C@@H]4[C@@]5(C)CC[C@@H](O)[C@](C)(NC(=O)CCCCC(=O)NO)[C@@H]5CC[C@]43C)[C@H]12 | 57
C[C@H]1[C@H](C)CC[C@]2(C)CC[C@]3(C)C(=CC[C@@H]4[C@@]5(C)CC[C@@H](O)[C@](C)(NC(=O)CCCC(=O)NO)[C@@H]5CC[C@]43C)[C@H]12 | 54
C[C@H]1[C@H](C)CC[C@]2(C)CC[C@]3(C)C(=CC(=O)[C@@H]4[C@@]5(C)CC[C@@H](O)[C@](C)(NC(=O)CCCCCCCC(=O)NO)[C@@H]5CC[C@]43C)[C@H]12 | 52
C[C@H]1[C@H](C)CC[C@]2(C)CC[C@]3(C)C(=CC[C@@H]4[C@@]5(C)CC[C@@H](O)[C@](C)(NC(=O)CCCCCCC(=O)NO)[C@@H]5CC[C@]43C)[C@H]12 | 56

1 = C[C@H]1[C@H](C)CC[C@]2(C)CC[C@]3(C)C(=CC(=O)[C@@H]4[C@@]5(C)CC[C@@H](O)[C@](C)(NC(=O)CCCC(=O)NO)[C@@H]5CC[C@]43C)[C@H]12
2 = C[C@H]1[C@H](C)CC[C@]2(C)CC[C@]3(C)C(=CC(=O)[C@@H]4[C@@]5(C)CC[C@@H](O)[C@](C)(NC(=O)CCCCCCC(=O)NO)[C@@H]5CC[C@]43C)[C@H]12
# min-compare on inhibition between 1 and 2 Respond using the label that marks the chosen record.
2

---

assay_target: Histone deacetylase (Homo sapiens) (UniProt Q13547+O15379+Q9UBN7+Q92769+Q9UQL6+Q8WUI4+Q9BY41+Q96DB2+P56524+Q9UKV0+Q969S8)
assay_summary: Inhibition of HDAC (unknown origin) at 30 uM
Assay type: protein assay
experimental_readout: inhibition (%)

C[C@H]1[C@H](C)CC[C@]2(C)CC[C@]3(C)C(=CC[C@@H]4[C@@]5(C)CC[C@@H](O)[C@](C)(NC(=O)CCCCCCCC(=O)NO)[C@@H]5CC[C@]43C)[C@H]12 | 34
C[C@H]1[C@H](C)CC[C@]2(C)CC[C@]3(C)C(=CC(=O)[C@@H]4[C@@]5(C)CC[C@@H](O)[C@](C)(NC(=O)CCCCCCCC(=O)NO)[C@@H]5CC[C@]43C)[C@H]12 | 31
C[C@H]1[C@H](C)CC[C@]2(C)CC[C@]3(C)C(=CC[C@@H]4[C@@]5(C)CC[C@@H](O)[C@](C)(NC(=O)CCCCCCC(=O)NO)[C@@H]5CC[C@]43C)[C@H]12 | 50
C[C@H]1[C@H](C)CC[C@]2(C)CC[C@]3(C)C(=CC(=O)[C@@H]4[C@@]5(C)CC[C@@H](O)[C@](C)(NC(=O)CCCCCCC(=O)NO)[C@@H]5CC[C@]43C)[C@H]12 | 12
C[C@H]1[C@H](C)CC[C@]2(C)CC[C@]3(C)C(=CC(=O)[C@@H]4[C@@]5(C)CC[C@@H](O)[C@](C)(NC(=O)CCCCC(=O)NO)[C@@H]5CC[C@]43C)[C@H]12 | 37

A = C[C@H]1[C@H](C)CC[C@]2(C)CC[C@]3(C)C(=CC[C@@H]4[C@@]5(C)CC[C@@H](O)[C@](C)(NC(=O)CCCC(=O)NO)[C@@H]5CC[C@]43C)[C@H]12
B = C[C@H]1[C@H](C)CC[C@]2(C)CC[C@]3(C)C(=CC(=O)[C@@H]4[C@@]5(C)CC[C@@H](O)[C@](C)(NC(=O)CCCC(=O)NO)[C@@H]5CC[C@]43C)[C@H]12
Lower value of inhibition belongs to which: A or B ? Bench note: the answer is the label of the chosen record.
A
